Could you please report measured growth for the items listed next?
# Test system: NCI-H23 lung
# TEST_SUMMARY: NCI-60 one-dose screen, 48 h (100 = growth as untreated, 0 = no growth, -100 = all killed)
# MEASUREMENT_SETUP: 10 µM unless noted
The panel holds about 83,000 compounds, 20% with a hit somewhere; the sample as a whole holds those more often.
Output spec: scalar in %, unitless text.

Give the observed growth of C=CC[n+]1c(/C=C/C=C2\N(C)c3ccccc3C2(C)C)sc2ccc(OC)cc21 for NCI-H23 lung.
11.6

Tell me growth of C=CC(=O)Nc1cc2c(Nc3ccc(F)c(Cl)c3)ncnc2cc1C#CC(C)(C)N1CCN(C)CC1 when tested on NCI-H23 lung.
-88.9

Look up and report growth, with NCI-H23 lung as system, for Cc1oc2c(C(=O)N/N=C\c3ccc(O)cc3O)c[nH]c2c1C
40.7

Tell me growth of CNC(=O)c1ccccc1Nc1nc(Nc2ccc3c(c2OC)CCC[C@H](N2CCN(CCO)CC2)C3)ncc1Cl when tested on NCI-H23 lung.
16.3

State measured growth of the compound COc1cc(NCCCN)c2ncccc2c1 with NCI-H23 lung.
70.8

Provide the reported growth (system: NCI-H23 lung) for COc1ccc(F)c(F)c1C(=O)c1cnc(NC2CCN(S(C)(=O)=O)CC2)nc1N
-36.5

Answer with growth of Clc1nc(Cl)c2ncn(CC#CCn3cnc4c(Cl)nc(Cl)nc43)c2n1 measured for NCI-H23 lung.
38.6

Jot down growth (NCI-H23 lung) of O=C(Cc1ccc(/C=C/C(=O)c2ncc[nH]2)cc1)Nc1ccc(Br)cc1 .
34.8

Send back NCI-H23 lung growth of CCN1CCN(c2cc(C)nc(N(CCCNc3ccnc4cc(Cl)ccc34)Cc3cccs3)n2)CC1 only.
49

Provide growth, system NCI-H23 lung, entry S=C(NCc1ccc2c(c1)OCO2)N1CCN(c2ncnc3c2oc2ccccc23)CC1
44.1

Lab note: record growth of CSc1nc2ncncc2[nH]1 tested on NCI-H23 lung.
101

Enter measured growth, system NCI-H23 lung, for the compound shown: COC(=O)CNC(=O)[C@@H](OC)[C@@H]1Cc2cc3cc(OC4CC(OC5CC(O)C(O)C(C)O5)C(O)C(C)O4)c(C)c(O)c3c(O)c2C(=O)[C@H]1OC1CC(OC2CC(OC3CC(C)(O)C(O)C(C)O3)C(O)C(C)O2)C(O)C(C)O1 (stereo partly drawn)
-16.8

Report measured growth on NCI-H23 lung; entry: CCN1CCN(Cc2ccc(Cc3ncc(F)c(-c4cc(F)c5nc(C)n(C(C)C)c5c4)n3)nc2)CC1
44.3

* * *

# Test system: OVCAR-8 ovarian
# TEST_SUMMARY: NCI-60 one-dose screen, 48 h
# MEASUREMENT_SETUP: 10 µM unless noted
Compounds without any hit were thinned out: in the full panel of roughly 83,000, 20% have a hit. Active and inactive are the calls of the source. How the source made its calls: active means growth percent below 10; inactive means the rest.
Answer with one of the outcomes label 1 (active), label 0 (inactive)

I'd appreciate the recorded outcome for COC(=O)CC[C@@H](C)[C@H]1CC[C@H]2C3CC[C@@H]4C[C@@H]5CC[C@]4(C)[C@@]3(O5)[C@H](Br)[C@@H](Br)[C@]12C (some centres undefined) from this test.
label 0

Recorded test call requested for COc1c(C(NC(=O)c2ccccc2)c2sccc2C)cc(Cl)c2cccnc12 (centres undefined)
label 0

Field: outcome | Entry: COC(=O)[C@H](C)NC(=O)[C@@H](OC)[C@@H]1Cc2cc3cc(OC4CC(OC5CC(O)C(O)C(C)O5)C(O)C(C)O4)c(C)c(O)c3c(O)c2C(=O)[C@H]1OC1CC(OC2CC(OC3CC(C)(O)C(O)C(C)O3)C(O)C(C)O2)C(O)C(C)O1 (some centres undefined)
label 1

Which outcome did this test record for the compound O=C(Nc1cccc([N+](=O)[O-])c1)c1ccc(Cl)c(Cl)c1 ?
label 0

// param item: CN1CCN(CCOc2cc(OC3CCOCC3)c3c(Nc4c(Cl)ccc5c4OCO5)ncnc3c2)CC1 ; yields the recorded call
label 0

GET /call?item= O=C(Nc1nc2cccc(-c3ccc(CN4CCS(=O)(=O)CC4)cc3)n2n1)C1CC1 returns the recorded outcome of this test.
label 0

# outcome recorded in this test, key = CC(=O)C1CC(C)CCC1C(C)C (centres undefined)
label 0

Dear colleague, could you share the recorded outcome for CC(C)c1cc(CNc2nc(Nc3cc(C4CC4)[nH]n3)cc(N3CCN(C)CC3)n2)on1 when you have a moment?
label 1

How did this test come out for COc1cc2c(c(OC)c1)C1c3ccccc3NC(=O)N1CC2 (centres undefined) ?
label 0

* * *

Please respond with reported growth for every item in the list.
# Tested on: 786-0 renal
# TEST_SUMMARY: NCI-60 one-dose screen, 48 h (100 = growth as untreated, 0 = no growth, -100 = all killed)
# MEASUREMENT_SETUP: 10 µM unless noted
Compounds without any hit were thinned out: in the full panel of roughly 83,000, 20% have a hit.
Give just the numeric value; % need not be written.

Give a short answer stating reported growth for CC(N)C(Cc1ccc(Cl)cc1)c1ccc(Cl)cc1 (stereo not given) .
57.1

Give me measured growth, please, for this compound: CC(C)c1cc(CNc2nc(Nc3cc(C4CC4)[nH]n3)cc(N3CCN(C)CC3)n2)on1
10.3

Please give measured growth of the following entry: COc1ccc(-c2cc3c(oc2=O)-c2ccccc2OC3OC(C)=O)cc1 (stereo not given)
91.3

Identify measured growth corresponding to Cc1cc(Nc2cc(N3CCN(C)CC3)nc(Sc3ccc(NC(=O)C4CC4)cc3)n2)n[nH]1
48.4

Identify measured growth corresponding to CNC(=O)c1nn(C)c2c1C(C)(C)Cc1cnc(Nc3ccc(N4CCN(C)CC4)cc3)nc1-2
12.3

* * *

Could you please report measured growth for the items listed next?
# Tested on: DU-145 prostate
# TEST_SUMMARY: NCI-60 one-dose screen, 48 h (100 = growth as untreated, 0 = no growth, -100 = all killed)
# MEASUREMENT_SETUP: 10 µM unless noted
The panel holds about 83,000 compounds, 20% with a hit somewhere; the sample as a whole holds those more often.
Give your result in % as a bare value.

Kindly indicate its recorded growth. Item: CC(N)C(Cc1ccccc1)c1ccc(Cl)cc1 (stereo not drawn)
110

Please supply the value of reported growth for the item Cn1cc(-c2cnn3c(N)c(Br)c([C@@H]4CCCNC4)nc23)cn1
37.1

Give reported growth value for COc1ccc(Cl)c(Nc2nc3ccccc3nc2NS(=O)(=O)c2cccc(NC(=O)C(C)(C)N)c2)c1
62.4

Indicate its recorded growth; the molecule in question is O=C1C=CC2(NN=C(c3ccccc3)N2c2ccccc2)c2cccc(O)c21 (stereo not drawn)
35.7

Give the measured growth for Nc1nc(N)c2nc(-c3cccc(O)c3)c(-c3cccc(O)c3)nc2n1
80.8

Give growth for the following molecule: CCc1cc2c(cc1N1CCC(N3CCOCC3)CC1)C(C)(C)c1[nH]c3cc(C#N)ccc3c1C2=O
10.1

Provide one value: measured growth of S=C(NCc1ccc2c(c1)OCO2)N1CCN(c2ncnc3c2oc2ccccc23)CC1
35.4

Report growth, nothing else, for this molecule: CCN(CCCOc1ccc2c(Nc3cc(CC(=O)Nc4cccc(F)c4)[nH]n3)ncnc2c1)CCOP(=O)(O)O
88.5

Name the recorded growth of the item CCOC(=O)C1=C(C)N=C2Sc3cc(OC(F)(F)F)ccc3N2[C@H]1c1ccccn1 in your answer.
46.5

Identify growth associated with the molecule COc1ncc(-c2ccc3nccc(-c4ccnnc4)c3c2)cc1NS(=O)(=O)c1ccc(F)cc1F
10.8

Give a short answer stating reported growth for O=C(COc1cccc(/C=C2\Cc3ccc(Cl)cc3C2=O)c1)Nc1nccs1 .
108

Indicate its recorded growth; the molecule in question is CCN1CCN(Cc2ccc(-c3cc4c(N[C@H](C)c5ccccc5)ncnc4[nH]3)cc2)CC1
40.5

State its growth: CC[C@@H]1C(=O)N(C)c2cnc(Nc3ccc(C(=O)NC4CCC(N5CCN(CC6CC6)CC5)CC4)cc3OC)nc2N1C(C)C (stereo partly drawn)
14.6

Read off the recorded growth for COC(=O)[C@@H](C)CNS(=O)(=O)N(c1cc(C(F)(F)F)cc(C(F)(F)F)c1)C1CCN(Cc2ccc(F)cc2)CC1
92.9

For the molecule Nc1c(Cl)cccc1[N+](=O)[O-] , give its measured growth value.
111

Could you please provide reported growth for COC(=O)C1CCc2sc3ncnc(Nc4cn[nH]c4C(=O)Nc4ccc(CN5CCN(C)CC5)cc4)c3c21 (stereo not drawn) ? Thanks!
-44.6

Quick one: give measured growth for C=CCn1c(=O)c2cnc(Nc3ccc(N4CCN(C)CC4)cc3)nc2n1-c1cccc(C(C)(C)O)n1
17.2

Identify measured growth associated with COC(=O)[C@H](Cc1ccc(O)cc1)NC(=O)[C@@H](OC)[C@@H]1Cc2cc3cc(OC4CC(OC5CC(O)C(O)C(C)O5)C(O)C(C)O4)c(C)c(O)c3c(O)c2C(=O)[C@H]1OC1CC(OC2CC(OC3CC(C)(O)C(O)C(C)O3)C(O)C(C)O2)C(O)C(C)O1 (stereo partly drawn)
15.8

Specify measured growth for O=C(Nc1ccc(N=Nc2ccccc2)cc1)c1cccc2ccccc12 .
85.3

Quick one: give measured growth for C=CCN(/C=C1/C(=O)O[C@H](COC)[C@@]2(C)C1=C(O)C(=O)C1=C2[C@H](OC(C)=O)C[C@]2(C)C(=O)CC[C@@H]12)CC=C
26.6

In one line, give reported growth of the entry O=S1(=O)OC(c2cc(Cl)c(O)c(Br)c2)(c2cc(Cl)c(O)c(Br)c2)c2ccccc21 .
114

Please report growth for the following molecule: Cc1nc2ccc(-n3ncc(C(=O)c4cc5ccccc5[nH]4)c3N)cc2[nH]1
60.7

Retrieve growth measured for CC/C(=C(/c1ccc(Cl)cc1)c1ccc(OCCN2CCCCC2)cc1)c1ccc(Cl)cc1 and print it.
89.8

Supply recorded growth for COc1ccc2c(CCCc3ccc(Cl)cc3Cl)c3[n+](cc2c1OC)CCc1cc2c(cc1-3)OCO2 here.
17.9

Using known records, supply growth for Cc1cc(Nc2nc(N[C@@H](C)c3ncc(F)cn3)ncc2Cl)n[nH]1
99.5

Answer with the recorded growth of COc1cc2c3c(c1)nc(C)n3CCC2 only.
109

Query growth for Cc1cc(N(CCNc2ccnc3cc(Cl)ccc23)Cc2ccc3c(c2)OCO3)nc(N2CCN(C)CC2)n1
38.2

Indicate its recorded growth; the molecule in question is O=C(Nc1cccc(Cl)c1)Nc1ncc(CCNc2ncnc3ccsc23)s1
50.6
